SUBJECT OF TEST: human serotonin reuptake transporter (Homo sapiens, UniProt P31645)
Sequence (P31645 whole entry): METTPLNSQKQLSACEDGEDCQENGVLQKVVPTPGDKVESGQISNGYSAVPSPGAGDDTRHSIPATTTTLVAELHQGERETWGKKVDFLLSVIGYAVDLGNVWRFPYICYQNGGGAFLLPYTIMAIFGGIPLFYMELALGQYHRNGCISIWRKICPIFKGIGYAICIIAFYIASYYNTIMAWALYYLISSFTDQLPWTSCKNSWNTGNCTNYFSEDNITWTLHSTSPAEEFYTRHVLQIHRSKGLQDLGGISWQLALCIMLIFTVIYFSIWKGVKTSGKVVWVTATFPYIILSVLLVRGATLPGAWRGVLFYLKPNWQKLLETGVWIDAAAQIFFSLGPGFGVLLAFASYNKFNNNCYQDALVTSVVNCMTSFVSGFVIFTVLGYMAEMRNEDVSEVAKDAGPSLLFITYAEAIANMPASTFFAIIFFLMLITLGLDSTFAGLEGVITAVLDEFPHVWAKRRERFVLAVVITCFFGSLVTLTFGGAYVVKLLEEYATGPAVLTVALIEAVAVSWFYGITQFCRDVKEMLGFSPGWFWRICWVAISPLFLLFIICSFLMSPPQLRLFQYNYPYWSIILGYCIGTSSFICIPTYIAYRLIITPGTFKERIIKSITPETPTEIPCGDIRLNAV
MEASUREMENT DESCRIPTION: cell-based
CONDITION DETAILS: Human IC50 (nM) hSERT, recombinant human serotonin transporter (SERT)
QUANTITY KIND: IC50 (nM)
# unit: nM | format: bare number

### Prompt Any idea what its IC50 is? The compound is CNCC1(c2ccc(Cl)c(Cl)c2)CC=CC1
### Response 1470

### Prompt Same again, this time with CSc1ccc(C2(CN)CCCCC2)cc1
### Response 1910

### Prompt Same again, this time with CCC(N(C)C)C1(c2ccc(Cl)c(Cl)c2)CCCCC1 (single isomer, unassigned) [61 E2]
### Response 9440
